# Activity of soybean GST enzyme, T-Stilbene Oxide listing for each entry below
Experiment: GST conjugation activity with t-stilbene oxide (HPLC)
Type: biochemical
Details: 0.4 mM electrophilic substrate, 4 mM glutathione, 0.1 M MOPS pH 7.0, corrected for uncatalyzed reaction
measuredMetric: Activity of soybean GST enzyme, T-Stilbene Oxide (nmol/min/mg)

- molecule: "ssl.pk0020.b10: soybean type III GST encoded by cDNA insert in clone ss1.pk0020.b10 (protein) MAEQDKVILHGMWASPYAKRVELALNFKGIPYEYVEEDLRNKSDLLLKYNPVHKKVPVLVHNGKAIAESMVILEYIDETWKDGPKLLPSDSYKRAQARFWCHFIQDQLMESTFLVVKTDGEAQQKAIDHVYEKLKVLEDGMKTYLGEGNAIISGVENNFGILDIVFCALYGAYKAHEEVIGLKFIVPEKFPVLFSWLMAIAEVEAVKIATPPHEKTVGILQLFRLSALKSSSATE"
  assayResult: 0.02
- molecule: "ssl.pk0005.e6: soybean type III GST encoded by cDNA insert in clone ss1.pk0005.e6 (protein) MTDEVVLLDFWPSPFGMRVRIALAEKGIEYEYKEEDLRNKSPLLLQMNPVHKKIPVLIHNGKPISESLIAVQYIEEVWNDRNPLLPSDPYQRAQARFWADYVDIKIHDLGKKIWTSKGEEKEAAKKEFIEALKLLEEQLGDKTYFGGDNIGFVDIALVPFYTWFKVYETFGSLNIENECPRFVAWAKRCLQKESVAKSLPDQHKVYEFVVEIRKKLVIE"
  assayResult: 0.06
- molecule: "se6.pk0048.d7: soybean type III GST encoded by cDNA insert in clone se6.pk0048.d7 (protein) MADEVVLLDFWPSPFGMRVRIALAEKGIKYESKEEDLQNKSPLLLKMNPVHKKIPVLIHNGKPICESLVAVQYIEEVWNDRNPLLPSDPYQRAQARFWADFVDNKIFDLGRKIWTSKGEEKEAAKKEFIEALKLLEEQLGDKTYFGGDDLGFVDIALIPFDTWFKTFGSLNIESECPKFVAWAKRCLQKDSVAKSLPDQHKVYEFIMDIRKKFDIE"
  assayResult: 0.07
- molecule: "ssl.pk0002.f7: soybean type III GST encoded by cDNA insert in clone ss1.pk0002.f7 (protein) MADGVVLLDTWASMFGMRVRIALAEKGVEYEYKEENLRNKSPLLLQMNPIHKKIPVLIHNGKPICESAIIVQYIDEVWNDKAPILPSDPYERAQARFWVDYIDKKVYDTWRKMWLSKGEEHEAGKKEFISIFKQLEETLSDKAYYGSDTFGFLDIGLIPFYSWFYTFETYGNFKMEEECPKLVAWAKRCMQREAVSKSLS"
  assayResult: 0.16
- molecule: "se1.27b04: soybean type I GST encoded by cDNA insert in clone se1.27b04 (protein) MICLHEKEVDFELVPVNVFAAEHKQPPFLSKNPFGFIPVLEDGDLTLFESRAITAYVAEKFKETEPDLIRHKDAKEAALVKVWTEVESHYYEPAVSPIIYEYFVAPFQGKEPDKSVIDTNVEKLKTVLDVYEAKLSSTKYLAGDFYSLADLSHVSETHYLMQTPCASMINELPHVKAWWEDISSRPAFNKVVGGMSFGQNH"
  assayResult: 0.00
- molecule: "ssm.pk0067.g5: soybean type III GST encoded by cDNA insert in clone ssm.pk0067.g5 (protein) MASYHEEEVRLLGKWASPFSNRVDLALKLKGVPYKYSEEDLANKSADLLKYNPVHKKVPVLVHNGNPLPESLIIVEYIDETWKNNPLLPQDPYERALARFWSKTLDDKILPAIWNACWSDENGREKAVEEALEALKILQETLKDKKFFGGESIGLVDIAANFIGYWVAILQEIAGLELLTIEKFPKLYNWSQDFINHPVIKEGLPPRDELFAFFKASAKK"
  assayResult: 0.49
- molecule: "ssm.pk0026.g11: soybean type II GST encoded by cDNA insert in clone ssm.pk0026.g11 (protein) MASASVGKELTLYSYWRSSCSHRVRIALNLKGLKYEYKPVNLLKGEQSRPEFLQLNPVGCVPVLVDDHVVLYDSFAIIMYLEDKYPHNPLLPHDIYKRAINFQAASVVSSTIQPLHNLSLLNYIGEKVGPDEKLPWAQSIIRRGFKALEKLLKDHTGRYATGDEVFLADIFLAPQLHAAFKRFNIHMNEFPILARLHETYNEIPAFQEALPENQPDAVH"
  assayResult: 0.04
